# test_system: UniProtKB P09917
# Sequence (P09917 whole entry): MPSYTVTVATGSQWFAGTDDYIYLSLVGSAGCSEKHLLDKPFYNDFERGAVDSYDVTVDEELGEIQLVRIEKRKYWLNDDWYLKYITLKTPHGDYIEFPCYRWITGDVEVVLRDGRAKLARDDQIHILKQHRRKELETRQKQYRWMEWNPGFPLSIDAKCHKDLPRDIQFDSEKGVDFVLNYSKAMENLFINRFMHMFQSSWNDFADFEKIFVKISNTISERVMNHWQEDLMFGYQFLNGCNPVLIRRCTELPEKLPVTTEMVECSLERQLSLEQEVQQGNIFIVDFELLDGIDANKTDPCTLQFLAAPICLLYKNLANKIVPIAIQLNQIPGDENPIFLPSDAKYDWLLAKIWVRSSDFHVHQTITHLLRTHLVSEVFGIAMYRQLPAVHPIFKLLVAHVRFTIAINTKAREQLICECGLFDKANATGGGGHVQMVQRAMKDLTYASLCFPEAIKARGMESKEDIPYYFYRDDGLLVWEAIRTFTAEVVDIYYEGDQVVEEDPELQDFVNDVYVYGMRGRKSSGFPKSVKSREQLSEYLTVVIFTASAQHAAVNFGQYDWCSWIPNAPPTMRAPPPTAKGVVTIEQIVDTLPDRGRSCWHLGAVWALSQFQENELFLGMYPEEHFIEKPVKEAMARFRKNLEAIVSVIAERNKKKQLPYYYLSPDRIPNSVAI
# experiment_notes: Inhibition of 5-LOX in A23187-stimulated human blood PMNL assessed as reduction in lipoxygenase products formation pre-incubated for 15 mins followed by stimulation with A23187 for 10 mins by RP-HPLC based cell based assay
// returns rule not met unless IC50 is strictly below 2000 nM, in which case rule met

Q: Determine if CCCCC1=C(O)C(=O)C=C(O)C1=O shows IC50 strictly lower than 2000 nM.
Ans: rule not met

Q: Input CCCCCCCCCCCCC1=C(OC)C(=O)C=C(OC)C1=O ; condition: IC50 strictly below 2000 nM. Does it hold?
Ans: rule met

Q: Please state whether IC50 is below 2000 nM for CCCCCCCCCCCCCCCCC1=C(OC)C(=O)C=C(OC)C1=O
Ans: rule not met

Q: Quick check: IC50 of CCCCCCCCCCCCCCCC1=C(OC)C(OC)=CC(=O)C1=O under 2000 nM?
Ans: rule not met

Q: State whether 2000 nM exceeds IC50 recorded for CCCCCCCCCCCC1=C(O)C(=O)C=C(O)C1=O [EMBELIN] .
Ans: rule met

Q: Dear reviewer, please state whether CCCCCCCCC1=C(O)C(=O)C=C(OC)C1=O has IC50 strictly beneath 2000 nM.
Ans: rule not met
